system.name: BACE1 enzyme (Homo sapiens)
Construct: transfected with a soluble BACE construct (BACE1deltaTM96His); His (C)
Sequence (P56817 46-457 limits assumed): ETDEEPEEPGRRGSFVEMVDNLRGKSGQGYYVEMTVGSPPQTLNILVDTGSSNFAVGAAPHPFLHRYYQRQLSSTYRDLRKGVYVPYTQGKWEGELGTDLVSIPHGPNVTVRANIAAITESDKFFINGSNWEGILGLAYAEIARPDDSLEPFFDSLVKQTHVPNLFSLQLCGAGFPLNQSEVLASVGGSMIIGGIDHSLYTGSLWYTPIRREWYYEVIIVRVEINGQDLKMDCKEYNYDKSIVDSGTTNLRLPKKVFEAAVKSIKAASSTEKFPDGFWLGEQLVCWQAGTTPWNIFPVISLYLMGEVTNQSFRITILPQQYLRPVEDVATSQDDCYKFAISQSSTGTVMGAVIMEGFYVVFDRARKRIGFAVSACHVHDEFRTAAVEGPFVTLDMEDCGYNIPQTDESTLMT
test.name: BACE1 Cell-Free Assay (fluorescence polarization, cleavage of synthetic APP substrate)
settings: geometric mean of 2-4 determinations unless otherwise indicated (b: ≥5 determinations; c: single determination); 0.1 nM BACE1, 150 nM peptide substrate, pH 4.5, 3 hours at 37° C.
Here the recorded pIC50 is given for each entry.
# pIC50: negative log10 of molar concentration; output just the value

A selection of reference data follows.
{"columns": ["molecule", "pIC50"],
 "data": [
  ["CC(F)(F)Oc1ccc(C(=O)Nc2csc([C@@]34COC(C)(C)C[C@@H]3CSC(N)=N4)n2)nc1 (single isomer, unassigned)", 4.55],
  ["CC[C@]1(C)C[C@H]2CSC(N)=N[C@@]2(c2nc(NC(=O)c3ccc(OC(F)F)cn3)cs2)CO1", 5.74],
  ["CC1(C)C[C@H]2CSC(N)=N[C@@]2(c2nc(NC(=O)c3cnc(OC(F)F)cn3)cs2)CO1 (single isomer, unassigned)", 6.78],
  ["NC1=N[C@@]2(c3nc(NC(=O)c4ccc(Cl)cn4)cs3)COC3(CCC3)C[C@H]2CS1", 7.06]
]}

Here is another molecule to look at.
Ask: Name the recorded pIC50 for CC(F)(F)COc1cnc(C(=O)Nc2csc([C@]34COC(C)(C)C[C@H]3CSC(N)=N4)n2)cn1 (single isomer, unassigned) .
Result: 6.38

====

system.name: BACE1 enzyme (Homo sapiens)
Construct: transfected with a soluble BACE construct (BACE1deltaTM96His); His (C)
test.name: BACE1 Cell-Free Assay (fluorescence polarization, cleavage of synthetic APP substrate)
settings: geometric mean of 2-4 determinations unless otherwise indicated (b: ≥5 determinations; c: single determination); 0.1 nM BACE1, 150 nM peptide substrate, pH 4.5, 3 hours at 37° C.
pIC50: −log10 of the molar value.
The label depends only on pIC50: Condition met if it is at least 7, Condition not met if it is smaller.

Consider the following illustrative entries.
{"columns": ["molecule", "assigned.category"],
 "data": [
  ["CC[C@]1(C)C[C@@H]2CSC(N)=N[C@]2(c2nc(NC(=O)c3ccc(OC(F)F)cn3)cs2)CO1", "Condition not met"],
  ["CC1(C)C[C@H]2CSC(N)=N[C@@]2(c2nc(NC(=O)c3ncc(OC(F)F)cc3Cl)cs2)CO1", "Condition met"],
  ["CC#CCOc1cnc(C(=O)Nc2csc([C@@]34COC(C)(C)C[C@@H]3CSC(N)=N4)n2)cn1 (single isomer, unassigned)", "Condition not met"],
  ["CC#CCOc1cnc(C(=O)Nc2csc([C@]34COC(C)(C)C[C@H]3CSC(N)=N4)n2)cn1 (single isomer, unassigned)", "Condition met"],
  ["CC1(C)C[C@H]2CSC(N)=N[C@@]2(c2nc(NC(=O)C(C)(C)F)cs2)CO1", "Condition not met"]
]}

Ask: Textbook exercise: given the entry `COC[C@]1(C)C[C@H]2CSC(N)=N[C@@]2(c2nc(NC(=O)c3ccc(OC(F)F)cn3)cs2)CO1` , state whether its pIC50 is greater than or equal to 7.
Result: Condition not met

Ask: Thanks! And CC1(C)C[C@H]2CSC(N)=N[C@@]2(c2nc(NC(=O)c3ccn(C(F)F)n3)cs2)CO1 (single isomer, unassigned) ?
Result: Condition met

Ask: Thanks! And NC1=N[C@]2(c3nc(NC(=O)c4ccc(OC(F)F)cn4)cs3)COC3(CC3)C[C@@H]2CS1 (single isomer, unassigned) ?
Result: Condition not met

Ask: Thanks! And NC1=N[C@@]2(c3nc(NC(=O)c4ccc(OC(F)F)cn4)cs3)COC3(CCC3)C[C@H]2CS1 (racemic) [Example 3] ?
Result: Condition not met

Ask: Thanks! And `C[C@@]1(CF)C[C@H]2CSC(N)=N[C@@]2(c2nc(NC(=O)c3ccc(OC(F)F)cn3)cs2)CO1` ?
Result: Condition not met

Ask: Thanks! And `CC[C@@]1(C)C[C@H]2CSC(N)=N[C@@]2(c2nc(NC(=O)c3ncc(OC(F)F)cc3C)cs2)CO1` ?
Result: Condition met
